target: UniProt:P05182; experiment: in vitro; details: rat, microsomes, pH 7.4
Property: inhibition at 60 min, 2 µM; scope: individual compounds
MEASURE_NAME: inhibition at 60 min, 2 µM (%)

| COMPOUND | REPORTED |
| --- | --- |
| O=c1c(O)c(-c2ccc(O)c(O)c2)oc2cc(O)cc(O)c12 | 9.99 |
| Cc1ncsc1CCCl [Clomethiazole, clomethiazole, reference compound] | 68.2 |
| O=c1c(O)c(-c2ccc(O)cc2)oc2cc(O)cc(O)c12 | 7.12 |

---

test system: CYP3A4; assay: in vitro; conditions: microsomes

| COMPOUND | STUDY_TARGET | Inhibition of CYP3A4 activity (in words) |
| --- | --- | --- |
| O=c1c(O[C@@H]2O[C@H](CO)[C@@H](O)[C@H](O)[C@H]2O)c(-c2ccc(O)c(O)c2)oc2cc(O)cc(O)c12 [Isoquercitrin, isoquercitrin] | CYP3A4 | no effects |
| O=c1c(O[C@@H]2O[C@H](CO)[C@@H](O)[C@H](O)[C@H]2O)c(-c2ccc(O)cc2)oc2cc(O)cc(O)c12 [Astragalin, astragalin] | CYP3A4 | no effects |
| O=c1c(O)c(-c2ccc(O)cc2)oc2cc(O)cc(O)c12 [Kaempferol, kaempferol] | CYP3A4 | moderate |
| O=c1c(O)c(-c2ccc(O)c(O)c2)oc2cc(O)cc(O)c12 [Quercetin, quercetin] | CYP3A4 | moderate |

---

Below, each entry is listed alongside its reported inhibition at 60 min, 1 µM.
target: CYP2E1 (Rattus norvegicus); assay: in vitro; conditions: rat, microsomes, pH 7.4
Sequence (P05182 whole entry): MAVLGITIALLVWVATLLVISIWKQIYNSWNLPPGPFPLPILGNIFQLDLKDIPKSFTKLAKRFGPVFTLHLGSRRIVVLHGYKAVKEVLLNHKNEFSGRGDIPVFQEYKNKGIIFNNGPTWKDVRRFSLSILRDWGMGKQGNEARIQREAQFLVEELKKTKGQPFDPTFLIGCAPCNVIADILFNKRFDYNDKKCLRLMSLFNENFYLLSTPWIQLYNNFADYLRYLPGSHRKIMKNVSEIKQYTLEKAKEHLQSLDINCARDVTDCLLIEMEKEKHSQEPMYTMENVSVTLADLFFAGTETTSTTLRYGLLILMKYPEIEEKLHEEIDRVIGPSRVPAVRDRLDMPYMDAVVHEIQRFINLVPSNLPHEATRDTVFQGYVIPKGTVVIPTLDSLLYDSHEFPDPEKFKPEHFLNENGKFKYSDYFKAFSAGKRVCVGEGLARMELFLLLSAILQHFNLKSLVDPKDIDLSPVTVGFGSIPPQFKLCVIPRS

| COMPOUND | UNITS | inhibition at 60 min, 1 µM |
| --- | --- | --- |
| O=c1c(O)c(-c2ccc(O)c(O)c2)oc2cc(O)cc(O)c12 [Quercetin, quercetin] | % | 7.21 |
| O=c1c(O)c(-c2ccc(O)cc2)oc2cc(O)cc(O)c12 [Kaempferol, kaempferol] | % | 5.5 |
| Cc1ncsc1CCCl [Clomethiazole, clomethiazole, reference compound] | % | 48.7 |

---

Tested on: CYP3A4
Assay: in vitro
Conditions: rat, microsomes, pH 7.4
Experimental: The rats were fasted for 12 h with free access to water and then sacrificed by cervical dislocation. The liver was removed promptly and washed with ice-cold physiological saline solution to yellowish brown. The liver tissue was cut into pieces as small as possible and the liver homogenate solution of 25% with phosphate buffer (pH 7.4) was processed at 0 to 4 °C by a tissue homogenizing machine. […] Protein concentration of the microsomes was determined by the method of Bradford. […]
MEASURE_NAME: inhibition at 45 min, 5 µM

| MOLECULE | REPORTED |
| --- | --- |
| O=c1c(O)c(-c2ccc(O)c(O)c2)oc2cc(O)cc(O)c12 | 33.2% |
| O=c1c(O[C@@H]2O[C@H](CO)[C@@H](O)[C@H](O)[C@H]2O)c(-c2ccc(O)c(O)c2)oc2cc(O)cc(O)c12 | 16.7% |
| CC(=O)N1CCN(c2ccc(OCC3COC(Cn4ccnc4)(c4ccc(Cl)cc4Cl)O3)cc2)CC1 (centres unmarked) [Ketoconazole, ketoconazole, reference compound] | 87.3% |
| O=c1c(O[C@@H]2O[C@H](CO)[C@@H](O)[C@H](O)[C@H]2O)c(-c2ccc(O)cc2)oc2cc(O)cc(O)c12 | 6.65% |
| O=c1c(O)c(-c2ccc(O)cc2)oc2cc(O)cc(O)c12 | 26.2% |
